Target: T1, RBFOX1 RRM (Homo sapiens, UniProt Q9NWB1 109-208)
T1 sequence: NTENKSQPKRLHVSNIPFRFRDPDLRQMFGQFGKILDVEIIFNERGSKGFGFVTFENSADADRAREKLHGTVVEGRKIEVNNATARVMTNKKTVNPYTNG
Test: EMSA; HiTS-Eq, 1 nM pool, 10 min; buffer printed only for the single-RNA assays: 10 mM Tris pH 7.5, 150 mM NaCl, 3.4 mM EDTA, 0.001% NP-40, 30 C
Conditions: tags: His6 N-terminal (pET28a); label: 5' 32P
In all, about 16,000 sequences were measured (“ka relative to ugcaugu”: median about 0.0091, highest 2% from about 0.032 on). What follows is part of a selection rich in the highest values, with near analogues and random picks from the rest.

binder: AACGCCU (DNA:RNA) RNA: GGGAGACCGGAAUUCAGAUUGUCCAACGCCUUUAAAUCCCGUCGUAGCCACCA DNA 1: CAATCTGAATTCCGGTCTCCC DNA 2: TGGTGGCTACGACGGGATT
binding signal: 0.00525 KA relative to UGCAUGU
--
binder: UAUUGCC (DNA:RNA) RNA: GGGAGACCGGAAUUCAGAUUGUCCUAUUGCCUUAAAUCCCGUCGUAGCCACCA DNA 1: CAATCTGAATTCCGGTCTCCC DNA 2: TGGTGGCTACGACGGGATT
binding signal: 0.012 KA relative to UGCAUGU
--
binder: UAAGCGA (DNA:RNA) RNA: GGGAGACCGGAAUUCAGAUUGUCCUAAGCGAUUAAAUCCCGUCGUAGCCACCA DNA 1: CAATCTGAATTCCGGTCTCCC DNA 2: TGGTGGCTACGACGGGATT
binding signal: 0.0108 KA relative to UGCAUGU
--
binder: CGGGAUG (DNA:RNA) RNA: GGGAGACCGGAAUUCAGAUUGUCCCGGGAUGUUAAAUCCCGUCGUAGCCACCA DNA 1: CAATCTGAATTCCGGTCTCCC DNA 2: TGGTGGCTACGACGGGATT
binding signal: 0.0412 KA relative to UGCAUGU
